assay: Cytotoxicity against mouse J774 cells assessed as cell viability at 10 uM after 24 hrs by MTT assay relative to control; assay type: toxicity, cell-based; details: J774 cells, read-out: Activity
Simple rule here: viability at 24 h, 10 µM less than 90% is condition met, otherwise condition not met.

Worked set:
NC[C@@H]1O[C@H](O[C@H]2[C@@H](O)[C@H](O[C@@H]3[C@@H](O)[C@H](N)C[C@H](N)[C@H]3O[C@H]3O[C@H](CN)[C@@H](O)[C@H](O)[C@H]3N)O[C@@H]2CO)[C@H](N)[C@@H](O)[C@@H]1O [FRAMYCETIN]
condition met
C=CCO[C@H]1O[C@H](CN)[C@@H](O)[C@H](O)[C@H]1N
condition met
CCCCCCCCCO[C@@H]1[C@@H](N)[C@@H](OCC(O)CNCCCN)O[C@H](CN)[C@H]1OCCCCCCCCC (mixture of isomers)
condition not met
CCCCCCCCCO[C@@H]1[C@@H](N)[C@@H](OC[C@@H](O)CN)O[C@H](CN)[C@H]1OCCCCCCCCC
condition met

Next up:
Given the entry NC[C@H]1O[C@H](O[C@H]2[C@H](O)[C@@H](O)[C@H](N)C[C@@H]2N)[C@H](N)[C@@H](O)[C@@H]1O [NEAMINE] , would its reported viability at 24 h, 10 µM be below 90%?
condition not met

---

experiment: Cytotoxicity against mouse J774 cells assessed as cell viability at 10 uM after 24 hrs by MTT assay relative to control; format: toxicity, cell-based; conditions: J774 cells, read-out: Activity
Please respond with label 1 when measured viability at 24 h, 10 µM is strictly beneath 90%, and with label 0 in all other cases.

Record excerpt, results attached:
CCCCCCCCCO[C@@H]1[C@@H](N)[C@@H](OCC(O)CNCCO)O[C@H](CN)[C@H]1OCCCCCCCCC (mixture of isomers)
label 0
NC[C@H]1O[C@H](O[C@H]2[C@H](O)[C@@H](OCc3ccc4ccccc4c3)[C@H](N)C[C@@H]2N)[C@H](N)[C@@H](OCc2ccc3ccccc3c2)[C@@H]1O
label 1
C=CCO[C@H]1O[C@H](CN)[C@@H](OCc2ccc3ccccc3c2)[C@H](OCc2ccc3ccccc3c2)[C@H]1N
label 1

Field: below-cutoff. Rule: recorded viability at 24 h, 10 µM strictly less than 90%. Subject: `CCCCCCCCCO[C@@H]1[C@@H](N)[C@@H](OC[C@H](O)CN=[N+]=[N-])O[C@H](CN)[C@H]1OCCCCCCCCC`
label 1

Determine if `C=CCO[C@H]1O[C@H](CN)[C@@H](OCCCc2ccc3ccccc3c2)[C@H](OCCCc2ccc3ccccc3c2)[C@H]1N` shows viability at 24 h, 10 µM strictly lower than 90%.
label 0

---

system: Pseudomonas aeruginosa; experiment: Antibacterial activity against triABC deficient Pseudomonas aeruginosa PA406 by microdilution method; format: functional
Reported MIC by item:
Numbers only here, please. The scale is µg/mL.

Use the examples below as a reference point.
CCCCCCCCCO[C@@H]1[C@@H](N)[C@@H](OCC(O)CO)O[C@H](CN)[C@H]1OCCCCCCCCC (mixture of isomers)
64
CCCCCCCCCO[C@@H]1[C@@H](N)[C@@H](OCC(O)CNCCN)O[C@H](CN)[C@H]1OCCCCCCCCC (mixture of isomers)
8
CCCCCCCCCO[C@@H]1[C@@H](N)[C@@H](OCC(O)CNCCCN)O[C@H](CN)[C@H]1OCCCCCCCCC (mixture of isomers)
4

// returns reported MIC for input `C=CCO[C@H]1O[C@H](CN)[C@@H](OCc2ccc3ccccc3c2)[C@H](OCc2ccc3ccccc3c2)[C@H]1N`
32

I have this compound here, CCCCCCCCCO[C@@H]1[C@@H](N)[C@@H](OCC(O)CNCCO)O[C@H](CN)[C@H]1OCCCCCCCCC (mixture of isomers) , and I need its recorded MIC.
8

Requested read-out: MIC. Entry: `CCCCCCCCCO[C@@H]1[C@@H](N)[C@@H](OC[C@H](O)CN)O[C@H](CN)[C@H]1OCCCCCCCCC`
8

---

assay: Cytotoxicity against mouse J774 cells assessed as cell viability at 30 uM after 24 hrs by MTT assay relative to control; format: toxicity, cell-based; conditions: J774 cells, read-out: Activity
Entries annotated with measured viability at 24 h, 30 µM
Value expressed in %; do not type the unit.

Would you please look over these solved cases?
C=CCO[C@H]1O[C@H](CN)[C@@H](OCc2ccc3ccccc3c2)[C@H](OCc2ccc3ccccc3c2)[C@H]1N
28.3
C=CCO[C@H]1O[C@H](CN)[C@@H](O)[C@H](O)[C@H]1N
82.1
C=CCO[C@H]1O[C@H](CN)[C@@H](OCCCc2ccc3ccccc3c2)[C@H](OCCCc2ccc3ccccc3c2)[C@H]1N
7

Look at this molecule and give its reported viability at 24 h, 30 µM. `CCCCCCCCCO[C@@H]1[C@@H](N)[C@@H](O[C@H]2[C@H](O)[C@@H](O)[C@H](N)C[C@@H]2N)O[C@H](CN)[C@H]1OCCCCCCCCC`
48.6

Dear colleague, I am looking for the recorded viability at 24 h, 30 µM of the following molecule: CCCCCCCCCO[C@@H]1[C@@H](N)[C@@H](OCC(O)CNCCCN)O[C@H](CN)[C@H]1OCCCCCCCCC (mixture of isomers)
71.6

Requested read-out: viability at 24 h, 30 µM. Entry: `CCCCCCCCCO[C@@H]1[C@@H](N)[C@@H](OC[C@@H](O)CN)O[C@H](CN)[C@H]1OCCCCCCCCC`
7.2

For `NC[C@H]1O[C@H](O[C@H]2[C@H](O)[C@@H](OCc3ccc4ccccc4c3)[C@H](N)C[C@@H]2N)[C@H](N)[C@@H](OCc2ccc3ccccc3c2)[C@@H]1O` , what is its reported viability at 24 h, 30 µM?
75.9

---

assay: Cytotoxicity against mouse J774 cells assessed as cell viability at 30 uM after 24 hrs by MTT assay relative to control; format: toxicity, cell-based; settings: J774 cells, read-out: Activity
Listed next: entries and their corresponding viability at 24 h, 30 µM.

CCCCCCCCCO[C@@H]1[C@@H](N)[C@@H](OCC(O)CNCCO)O[C@H](CN)[C@H]1OCCCCCCCCC (mixture of isomers)
10.1%

# viability at 24 h, 30 µM lookup, item CCCCCCCCCO[C@@H]1[C@@H](N)[C@@H](OCC(O)CNCCN)O[C@H](CN)[C@H]1OCCCCCCCCC (mixture of isomers)
53%

What value of measured viability at 24 h, 30 µM is listed for CCCCCCCCCO[C@@H]1[C@@H](N)[C@@H](OCC(O)CNCCCO)O[C@H](CN)[C@H]1OCCCCCCCCC (mixture of isomers) ?
13.7%

Entry under review: `CCCCCCCCCO[C@@H]1[C@@H](N)[C@@H](OC[C@H](O)CN=[N+]=[N-])O[C@H](CN)[C@H]1OCCCCCCCCC` . Reported viability at 24 h, 30 µM?
5.9%

Which value of viability at 24 h, 30 µM has been reported for `NC[C@H]1O[C@H](O[C@H]2[C@H](O)[C@@H](O)[C@H](N)C[C@@H]2N)[C@H](N)[C@@H](O)[C@@H]1O` in the records?
84.4%

What does the data say about its viability at 24 h, 30 µM? Entry: `C=CCO[C@H]1O[C@H](CN)[C@@H](OCCCCCCCCC)[C@H](OCCCCCCCCC)[C@H]1N`
6.6%

Requested read-out: viability at 24 h, 30 µM. Entry: CCCCCCCCCO[C@@H]1[C@@H](N)[C@@H](OCC(O)CO)O[C@H](CN)[C@H]1OCCCCCCCCC (mixture of isomers)
8.8%

Returns the measured viability at 24 h, 30 µM for the input compound. Input: `NC[C@H]1O[C@H](O[C@H]2[C@H](O)[C@@H](O)[C@H](N)C[C@@H]2N)[C@H](N)[C@@H](OCCCc2ccc3ccccc3c2)[C@@H]1OCCCc1ccc2ccccc2c1`
66.9%

Request the reported viability at 24 h, 30 µM associated with `CCCCCCCCCO[C@@H]1[C@@H](N)[C@@H](OC[C@H](O)CN)O[C@H](CN)[C@H]1OCCCCCCCCC`
14.4%

Looking for the measured viability at 24 h, 30 µM of `NC[C@@H]1O[C@H](O[C@H]2[C@@H](O)[C@H](O[C@@H]3[C@@H](O)[C@H](N)C[C@H](N)[C@H]3O[C@H]3O[C@H](CN)[C@@H](O)[C@H](O)[C@H]3N)O[C@@H]2CO)[C@H](N)[C@@H](O)[C@@H]1O` , can you help?
69.8%

Field request: viability at 24 h, 30 µM | item: `NCC[C@H](O)C(=O)N[C@@H]1C[C@H](N)[C@@H](O[C@H]2O[C@H](CN)[C@@H](O)[C@H](O)[C@H]2O)[C@H](O)[C@H]1O[C@H]1O[C@H](CO)[C@@H](O)[C@H](N)[C@H]1O`
92%

Form field: reported viability at 24 h, 30 µM of `NC[C@H]1O[C@H](O[C@H]2[C@H](O)[C@@H](O[C@H]3O[C@H](CO)[C@@H](O)[C@H](N)[C@H]3O)[C@H](N)C[C@@H]2N)[C@H](N)C[C@@H]1O`
83.2%
